- Tested on: NCI/ADR-RES ovarian
- assay notes: NCI tumour cell line growth inhibition, 48 h
Exercise: state measured TGI for each of the compounds provided.
Please reply with the bare figure in µM and do not write the unit itself.

Problem: Reported TGI for Cc1cc(N[C@@H]2CCC[C@H](Nc3ccnc4cc(Cl)ccc34)C2)nc(N2CCCCCC2)n1 : what is it?
Solution: 3.9

Problem: Reported TGI for COc1ccc2nc3ccccc3c(NCc3ccc(F)cc3)c2c1 : what is it?
Solution: 8.24

Problem: Reported TGI for CC1(C)OC2C(CO[Si](C)(C)C(C)(C)C)OC(n3c(I)c(C#C[Si](C)(C)C)c(=O)[nH]c3=O)C2O1 (stereo unspecified) : what is it?
Solution: 58.3

Problem: Reported TGI for CN1CCN(c2ccc(Nc3cc(-c4cccc(-n5ccc6cc(C7CC7)cc(F)c6c5=O)c4CO)cn(C)c3=O)nc2)CC1 : what is it?
Solution: 33.4

Problem: Reported TGI for NC(=O)c1c(NC(=O)c2ccccc2)sc2c1CCC(=O)C2 : what is it?
Solution: 10.4

Problem: Reported TGI for S=c1c2cn[nH]c2nc2scc(-c3ccc(Cl)cc3)n12 : what is it?
Solution: 31.2

Problem: Reported TGI for N#CC(C#N)=C1SC(=Nc2ccccc2)C(=Nc2ccccc2)N1c1ccccc1 : what is it?
Solution: 97.1

Problem: Reported TGI for CNc1cc2c(c3ccccc13)C(CCl)CN2C(=O)c1cc2cc(OC)c(OC)c(OC)c2[nH]1 (stereo unspecified) : what is it?
Solution: 0.0156

Problem: Reported TGI for COC(=O)/C=C\C(C#N)(C#N)N=Cc1ccc(C)cc1 : what is it?
Solution: 10.9

---

- Test system: NCI/ADR-RES ovarian
- assay notes: NCI tumour cell line growth inhibition, 48 h
Exercise: state measured GI50 for each of the compounds provided.

Problem: Reported GI50 for Nc1ncc(-c2ccc3ncnc(Nc4ccc(F)c(Cl)c4)c3c2)cn1 : what is it?
Solution: 3.8 µM

Problem: Reported GI50 for CCN1CCN(c2cc(C)c3cc(NC(=O)c4ccc(OC)c(OC)c4)ccc3n2)CC1 : what is it?
Solution: > 49.1 µM

Problem: Reported GI50 for NC(N)=N/N=C/c1c(Cl)cccc1Cl : what is it?
Solution: 28.9 µM

Problem: Reported GI50 for CCC[CH2][Sn]([CH2]CCC)([O]C(=O)c1ccc(OC)c(OC)c1OC)[O][Sn]([CH2]CCC)([CH2]CCC)[O]C(=O)c1ccc(OC)c(OC)c1OC : what is it?
Solution: 0.843 µM

Problem: Reported GI50 for CN1CCN(c2ccc(Nc3cc(-c4cccc(-n5ccc6cc(C7CC7)cc(F)c6c5=O)c4CO)cn(C)c3=O)nc2)CC1 : what is it?
Solution: 8.03 µM

Problem: Reported GI50 for Cc1nnc(Nc2ccc(NC(=O)Nc3ccc(Cl)cc3)cc2)c2ccccc12 : what is it?
Solution: 3.63 µM

Problem: Reported GI50 for Cc1nc(Nc2cccnc2)sc1C(=O)/C=C/c1ccc(F)cc1 : what is it?
Solution: 3.24 µM

Problem: Reported GI50 for NC1CCN(Cc2ccccc2)CC1 : what is it?
Solution: > 100 µM

Problem: Reported GI50 for O=C(/C=C/c1ccc[nH]1)c1ccc(-n2ccc(C(F)(F)F)n2)cc1 : what is it?
Solution: > 100 µM

Problem: Reported GI50 for CC(C)(/C=C(\C#N)C(=O)N1CCC[C@@H](n2nc(-c3ccc(Oc4ccccc4)cc3F)c3c(N)ncnc32)C1)N1CCN(C2COC2)CC1 : what is it?
Solution: 14.7 µM

Problem: Reported GI50 for O=c1oc2ccc(-c3ccc(F)cc3F)cc2c(=O)n1-c1cccc(C(F)(F)F)c1 : what is it?
Solution: 2.2 µM

Problem: Reported GI50 for O=C(NC[C@H](O)CN1CCc2ccccc2C1)c1cc(NC2COC2)ncn1 : what is it?
Solution: 15.9 µM

Problem: Reported GI50 for COc1ccc(-c2nnc3n(C)c(=O)c4ccccc4n23)cc1N : what is it?
Solution: 0.0656 µM

Problem: Reported GI50 for CNCCOC(=O)/C=C1\CC[C@H]2[C@@H]([C@@H](O)C(=O)[C@@H]3[C@]2(C)CC[C@H](O)[C@]3(C)C(=O)OC)[C@H]1C : what is it?
Solution: 0.22 µM

---

- System: SF-295 CNS
- assay notes: NCI tumour cell line growth inhibition, 48 h; in the data active = GI50 below about 0.43 µM; inactive = the rest
Your reply should match one of these outcome classes. active, inactive

Problem: Lab log entry: O=c1oc2ccc(-c3ccc(F)cc3F)cc2c(=O)n1-c1cccc(C(F)(F)F)c1 — outcome as called in the assay?
Solution: inactive

Problem: Lab log entry: Clc1cc2c(c(CSc3nc4ccccc4n4cccc34)c1)OCOC2 — outcome as called in the assay?
Solution: inactive

Problem: Lab log entry: Nc1ncc(-c2ccc3ncnc(Nc4ccc(F)c(Cl)c4)c3c2)cn1 — outcome as called in the assay?
Solution: inactive

Problem: Lab log entry: COc1cnc2c(c1)C(=O)c1c-2n(CCCNC2=NCCS2)c(=O)c2cc([N+](=O)[O-])ccc12 — outcome as called in the assay?
Solution: active

Problem: Lab log entry: CCn1c(O)c(/C=N/NC(=O)C(C)c2ccc(CC(C)C)cc2)sc1=S (stereo not given) — outcome as called in the assay?
Solution: active

Problem: Lab log entry: O=c1c(F)cn(Cc2ccc(C34CC5CC(CC(C5)C3)C4)c(O)c2)c(=O)n1Cc1ccc(C23CC4CC(CC(C4)C2)C3)c(O)c1 — outcome as called in the assay?
Solution: inactive

Problem: Lab log entry: COc1cc(Cl)cc(-c2nn(-c3cccc(NC(=O)c4ccc(N5CCOCC5)c(C(F)(F)F)c4)c3)cc2-c2ccncc2)c1 — outcome as called in the assay?
Solution: inactive

Problem: Lab log entry: C[n+]1c(/C=C/c2c(O)ccc3ccccc23)ccc2ccccc21 — outcome as called in the assay?
Solution: inactive

Problem: Lab log entry: N#Cc1nn(-c2cc(=O)[nH]c3ccc(Cl)cc23)c(N)c1C#N — outcome as called in the assay?
Solution: inactive

Problem: Lab log entry: C[C@@H]1C[C@@H]([C@@H](CC2CC(=O)NC(=O)C2)OC(=O)CC(=O)c2ccccc2)C(=O)[C@@H](C)C1 — outcome as called in the assay?
Solution: active

---

Exercise: state measured GI50 for each of the compounds provided.
- Tested on: A549 NSCLC
- assay notes: NCI tumour cell line growth inhibition, 48 h

Problem: Reported GI50 for O=C(Nc1cccc(C(F)(F)F)c1)c1ccc(NC2=C(Cl)C(=O)N(Cc3ccc(Cl)cc3Cl)C2=O)cc1 : what is it?
Solution: 21600 nM

Problem: Reported GI50 for CCN1CCN(c2cc(C)c3cc(NC(=O)c4ccc(OC)c(OC)c4)ccc3n2)CC1 : what is it?
Solution: 11100 nM

Problem: Reported GI50 for COc1cc(N=Nc2ccc(O)c3ncccc23)c2ncccc2c1 : what is it?
Solution: 8040 nM

Problem: Reported GI50 for COc1cc(N(CCC#N)CCC#N)ccc1/C(N=Nc1ccc(Cl)cc1)=N/NC(=O)c1cc(Br)ccc1O : what is it?
Solution: 85.5 µg/mL

Problem: Reported GI50 for COc1ccc2nc3ccccc3c(NCc3ccc(F)cc3)c2c1 : what is it?
Solution: 1990 nM

Problem: Reported GI50 for C[C@@H]1C[C@@H]([C@@H](CC2CC(=O)NC(=O)C2)OC(=O)CC(=O)c2ccccc2)C(=O)[C@@H](C)C1 : what is it?
Solution: 567 nM

Problem: Reported GI50 for CC(=O)ON1CCCC(P(=O)(OCCSC(=O)C(C)(C)C)OCCSC(=O)C(C)(C)C)C1=O (centres undefined) : what is it?
Solution: 1520 nM

Problem: Reported GI50 for Nc1ncc(-c2ccc3ncnc(Nc4ccc(F)c(Cl)c4)c3c2)cn1 : what is it?
Solution: 1950 nM

Problem: Reported GI50 for CCC[CH2][Sn]([CH2]CCC)([O]C(=O)c1ccc(OC)c(OC)c1OC)[O][Sn]([CH2]CCC)([CH2]CCC)[O]C(=O)c1ccc(OC)c(OC)c1OC : what is it?
Solution: 2270 nM

---

- Test system: HL-60(TB) leukemia
- assay notes: NCI tumour cell line growth inhibition, 48 h
reported property: TGI

Problem: Reported TGI for CN(C)C1CCN(C(=O)c2ccc(NC(=O)Nc3ccc(-c4nc(N5CCOCC5)c5cccn5n4)cc3)cc2)CC1 : what is it?
Solution: 1.76 µM

Problem: Reported TGI for NC1CCN(Cc2ccccc2)CC1 : what is it?
Solution: > 100 µM

Problem: Reported TGI for O=C(O)[C@H]1CCCN1CP(=O)(O)CN1CCC[C@@H]1C(=O)O : what is it?
Solution: > 100 µM

Problem: Reported TGI for CCOS(C)(=O)=O : what is it?
Solution: > 100 µM

Problem: Reported TGI for CC(C)(/C=C(\C#N)C(=O)N1CCC[C@@H](n2nc(-c3ccc(Oc4ccccc4)cc3F)c3c(N)ncnc32)C1)N1CCN(C2COC2)CC1 : what is it?
Solution: 32.5 µM

Problem: Reported TGI for COc1cc2c(cc1OC)C(C(c1ccccc1)c1ccccc1)N(C)CC2 (stereo not drawn) : what is it?
Solution: > 100 µM

Problem: Reported TGI for CCN1CCN(c2cc(C)c3cc(NC(=O)c4ccc(OC)c(OC)c4)ccc3n2)CC1 : what is it?
Solution: > 44.8 µM

Problem: Reported TGI for Cc1nc(C)c(N2CCN([N+](=O)[O-])CC2)c(=O)[nH]1 : what is it?
Solution: > 100 µM

Problem: Reported TGI for COC(C)(C)C1(O)CC[C@@H](C)CC1=O (stereo partly drawn) : what is it?
Solution: > 100 µM

Problem: Reported TGI for COc1c(O)c2c(=O)cc3c4c5c(cc(=O)c6c(O)c(OC)c(CC(C)O)c(c(c1CC(C)O)c24)c65)OCO3 (stereo not drawn) : what is it?
Solution: 5.1 µM

Problem: Reported TGI for COc1cc(N(CCC#N)CCC#N)ccc1/C(N=Nc1ccc(Cl)cc1)=N/NC(=O)c1cc(Br)ccc1O : what is it?
Solution: > 150 µg/mL

Problem: Reported TGI for O=C1C=C/C(=N\N=C(c2ccccc2)c2ccccc2)O1 : what is it?
Solution: > 10 µM

Problem: Reported TGI for CC1=CCC([C@@](C)(O)CCCC(C)(C)N=C=S)CC1 (stereo partly drawn) : what is it?
Solution: 43.8 µM
